# Target Or System: TcSpdSyn (Trypanosoma cruzi, UniProt Q4DA73)
# Sequence (Q4DA73 entry or part of it): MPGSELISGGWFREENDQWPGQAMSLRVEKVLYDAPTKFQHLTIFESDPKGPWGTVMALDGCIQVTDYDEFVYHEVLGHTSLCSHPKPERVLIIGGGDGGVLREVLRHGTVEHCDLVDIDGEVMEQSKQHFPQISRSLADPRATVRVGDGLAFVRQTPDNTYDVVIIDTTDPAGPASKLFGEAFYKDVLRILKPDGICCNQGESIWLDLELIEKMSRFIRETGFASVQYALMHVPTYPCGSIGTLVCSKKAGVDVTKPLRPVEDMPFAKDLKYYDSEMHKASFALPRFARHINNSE
# Assay Overview: biochemical
# Assay type: biochemical
# Setup Conditions: read-out: IC50 for TcSpdSyn
Value Type: IC50 (µM)
Numeric answer only, unit µM assumed.

Fill in the blank: the reported IC50 of NCCc1ccc(O)c(O)c1 [Compound 4, 4-(2-Aminoethyl)-1,2-benzenediol] is ____.
66

Okay, and O=c1nc(Nc2nc(O)nc(O)n2)sc2ccccc12 [Compound 2] ?
28

Try C[C@H]1CC[C@H](N)CC1 [Compound 4MCHA, trans-4-methylcyclohexylamine, reference compound] next.
1.9

###

Please provide measured Hill (4PL curve fitting parameter) for the entries that follow.
# Target Or System: TcSpdSyn (Trypanosoma cruzi, UniProt Q4DA73)
# Assay Overview: biochemical
# Type: biochemical
# Setup Conditions: Supplementary Table 3

Report Hill (4PL curve fitting parameter) for CCOc1ccc2c(c1)c(CCN)cn2CC [Compound 3] please.
1.44

Queued: NCCc1ccccc1F [Compound 1, 2-(2-Fluorophenyl)ethanamine]
0.90

And then O=c1nc(Nc2nc(O)nc(O)n2)sc2ccccc12 [Compound 2] , what is it?
1.27

Same read-out for C[C@H]1CC[C@H](N)CC1 [Compound 4MCHA, trans-4-methylcyclohexylamine, reference compound] ?
1.01

Also NCCc1ccc(O)c(O)c1 [Compound 4, 4-(2-Aminoethyl)-1,2-benzenediol] , if possible.
1.03

###

# Target Or System: TcSpdSyn (Trypanosoma cruzi)
# Assay Overview: biochemical
# Format: biochemical
# Setup Conditions: Supplementary Table 3; Log10 of X50
# Method: To identify TcSpdSyn inhibitors, we performed an in vitro enzyme inhibition assay on 176 compounds sourced from the chemical compound library at Astellas Pharma. The TcSpdSyn inhibition assay was performed essentially as previously[27] described. […] The fluorescence signal was then detected in a plate reader (Paradigm, Molecular Devices Inc.) with excitation at 405 nm and emission at 530 nm. Each IC50 value was measured using eight different concentrations in quadruplicate. […]
Value Type: LoggedX50 (4PL curve fitting parameter)
Enter a number only.

// lookup LoggedX50 (4PL curve fitting parameter) | system=TcSpdSyn (Trypanosoma cruzi) | key= C[C@H]1CC[C@H](N)CC1 [Compound 4MCHA, trans-4-methylcyclohexylamine, reference compound]
0.29

Similarly, NCCc1ccccc1F [Compound 1, 2-(2-Fluorophenyl)ethanamine] ?
2.09

Lookup CCOc1ccc2c(c1)c(CCN)cn2CC [Compound 3]
2.05

Also need NCCc1ccc(O)c(O)c1 [Compound 4, 4-(2-Aminoethyl)-1,2-benzenediol] , thanks.
1.82

Again, but for O=c1nc(Nc2nc(O)nc(O)n2)sc2ccccc12 [Compound 2]
1.46

###

Task for the reader: assign each of the following compounds its reported IC50.
# Target Or System: TcSpdSyn (Trypanosoma cruzi, UniProt Q4DA73)
# Assay Overview: biochemical
# Assay type: biochemical
The reply should be a number in µM, with the unit left off.

If you can, please state the reported IC50 value of NCCc1ccccc1F .
124

# iterate: CCOc1ccc2c(c1)c(CCN)cn2CC
113

Data provenance: paper PMC5532286
